system: Saccharomyces cerevisiae; assay: protein stability index of tFT-peptide fusion (C-terminal peptide) (PSI (0-1 scale)); higher = more stable (slower turnover); details: genetic background: das1 deletion; temperature: 30 C
Values of protein stability index greater than or equal to 0.4 map to Condition met; values below map to Condition not met.

- sequence-record: "VNFVLTLYPYLV"
  target-desc: "Saccharomyces cerevisiae"
  class-label: "Condition met"
- sequence-record: "SDAIKITFIIHN"
  target-desc: "Saccharomyces cerevisiae"
  class-label: "Condition met"
- sequence-record: "DRLRSGLSLLLA"
  target-desc: "Saccharomyces cerevisiae"
  class-label: "Condition met"
- sequence-record: "PRPSPPLPPPSS"
  target-desc: "Saccharomyces cerevisiae"
  class-label: "Condition met"
- sequence-record: "WLISLLVQPVFL"
  target-desc: "Saccharomyces cerevisiae"
  class-label: "Condition not met"
- sequence-record: "GRGRGGRWGRLC"
  target-desc: "Saccharomyces cerevisiae"
  class-label: "Condition met"
- sequence-record: "VRLSQVNRLICT"
  target-desc: "Saccharomyces cerevisiae"
  class-label: "Condition met"
- sequence-record: "RFLACSIRYLVY"
  target-desc: "Saccharomyces cerevisiae"
  class-label: "Condition not met"
- sequence-record: "FCALWLCFRLMV"
  target-desc: "Saccharomyces cerevisiae"
  class-label: "Condition not met"
- sequence-record: "GFFFLFFVSAFI"
  target-desc: "Saccharomyces cerevisiae"
  class-label: "Condition not met"
- sequence-record: "FLFIFFFFLISF"
  target-desc: "Saccharomyces cerevisiae"
  class-label: "Condition not met"
- sequence-record: "IIFWMWVIIRVY"
  target-desc: "Saccharomyces cerevisiae"
  class-label: "Condition not met"
- sequence-record: "RHQTDIVTATQK"
  target-desc: "Saccharomyces cerevisiae"
  class-label: "Condition met"
- sequence-record: "EWFFCLGLFRFH"
  target-desc: "Saccharomyces cerevisiae"
  class-label: "Condition met"
- sequence-record: "LLGDFAVLTCVF"
  target-desc: "Saccharomyces cerevisiae"
  class-label: "Condition not met"
- sequence-record: "APPRLPLLSCSQ"
  target-desc: "Saccharomyces cerevisiae"
  class-label: "Condition met"
- sequence-record: "FASVFCVVTGYV"
  target-desc: "Saccharomyces cerevisiae"
  class-label: "Condition met"
- sequence-record: "SRFFSSSFYRLC"
  target-desc: "Saccharomyces cerevisiae"
  class-label: "Condition met"
- sequence-record: "IYLLLFFFSFSA"
  target-desc: "Saccharomyces cerevisiae"
  class-label: "Condition not met"
- sequence-record: "VIVIQGFVFVLG"
  target-desc: "Saccharomyces cerevisiae"
  class-label: "Condition not met"
- sequence-record: "SVVVLHVHVRPP"
  target-desc: "Saccharomyces cerevisiae"
  class-label: "Condition met"
- sequence-record: "GYTVYARRLIMC"
  target-desc: "Saccharomyces cerevisiae"
  class-label: "Condition not met"
- sequence-record: "VCVRLVHCLVLV"
  target-desc: "Saccharomyces cerevisiae"
  class-label: "Condition not met"

====

system: Saccharomyces cerevisiae; test: protein stability index of tFT-peptide fusion (C-terminal peptide) (PSI (0-1 scale)); higher = more stable (slower turnover); conditions: genetic background: wild type; temperature: 30 C
Values of protein stability index greater than or equal to 0.7 map to rule met; values below map to rule not met.

- sequence-record: "TLKKVTQNFYFD [LMO1 C-terminal 12 aa]"
  class-label: "rule not met"
- sequence-record: "GPSDDDEEDDKK [YGL242C C-terminal 12 aa]"
  class-label: "rule not met"
- sequence-record: "ERVKIGVQFYEE [RTG2 C-terminal 12 aa]"
  class-label: "rule met"
- sequence-record: "QVLGTEEPTVRT [PGM2 C-terminal 12 aa]"
  class-label: "rule not met"
